Assay Endpoint: pIC50
Scale explanation: pIC50 corresponds to minus log10 of a concentration expressed in moles per litre.

Enquiry: Can you look up pIC50 on UniProt O95251 for CC1=NN(c2ccc(C(=O)O)cc2)C(=O)/C1=C\c1ccc(-c2cc(C)c(C)cc2[N+](=O)[O-])o1 [VII (C646), reference compound] ?
Return: 5.10

###

Assay Endpoint: IC50 (µM)
Give just the numeric value; µM need not be written.

Enquiry: Can you look up IC50 on KAT6B (Homo sapiens, UniProt Q8WYB5) for CC1=NN(c2ccc(C(=O)O)cc2)C(=O)/C1=C\c1ccc(-c2cc(C)c(C)cc2[N+](=O)[O-])o1 [VII (C646), reference compound] ?
Return: 5.6

###

- Target Under Test: KAT3B (Homo sapiens)
- Construct: KAT3B (aa 1284–1672, 1 nM); purchased Reaction Biology Corporation
- Sequence (Q09472 1284-1672): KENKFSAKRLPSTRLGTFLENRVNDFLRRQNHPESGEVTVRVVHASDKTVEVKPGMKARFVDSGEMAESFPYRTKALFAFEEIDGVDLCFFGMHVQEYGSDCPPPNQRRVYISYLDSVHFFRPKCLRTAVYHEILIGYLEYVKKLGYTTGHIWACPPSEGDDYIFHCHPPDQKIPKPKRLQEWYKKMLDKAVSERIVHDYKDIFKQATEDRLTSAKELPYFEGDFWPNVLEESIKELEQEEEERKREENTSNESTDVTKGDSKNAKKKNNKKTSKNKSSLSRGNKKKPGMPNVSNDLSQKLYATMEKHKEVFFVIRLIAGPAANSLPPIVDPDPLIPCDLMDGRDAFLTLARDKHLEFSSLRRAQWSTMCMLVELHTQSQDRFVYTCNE
- Test Name: HotSpot KAT assay, KAT3B
- Format: biochemical
- Condition Notes: read-out: IC50 KAT3B (1 nM); enzyme 1 nM; NI = no inhibition at 200 μM; mean ± SD of three independent experiments
- Protocol: The effects of the compounds on other KATs were determined using the HotSpot KAT assay (Reaction Biology Corporation, Malvern, PA, USA) according to the supplier’s procedure. […] Histone peptide acetylation was assessed by liquid scintillation counting using a Tri-Carb 2800TR Liquid Scintillation Analyzer (Perkin Elmer). Experiments were performed in biological triplicates. […] In cases in which an IC50 was calculated, the values were fitted by nonlinear regression (GraphPad Prism 8.0).
Record form. Attribute: IC50. Fill in for each entry.
Give just the numeric value; µM need not be written.

Enquiry: Can you look up IC50 on KAT3B (Homo sapiens) for CC1=NN(c2ccc(C(=O)O)cc2)C(=O)/C1=C\c1cc2ccccc2[nH]1 [Compound 26] ?
Return: 1.6

Enquiry: Can you look up IC50 on KAT3B (Homo sapiens) for CC1=NN(c2ccc(C(=O)O)cc2)C(=O)/C1=C\c1cccs1 [Compound 21] ?
Return: 26.5

Enquiry: Can you look up IC50 on KAT3B (Homo sapiens) for CCCCCCCCCCCCCCCc1cccc(O)c1C(=O)O [I (AA), anacardic acid, reference compound] ?
Return: 22.9

Enquiry: Can you look up IC50 on KAT3B (Homo sapiens) for CC1=NN(c2ccc(C(=O)O)cc2)C(=O)/C1=C\c1cc(C(=O)c2ccccc2)c[nH]1 [Compound 1] ?
Return: 13.6

Enquiry: Can you look up IC50 on KAT3B (Homo sapiens) for CC1=NN(c2ccc(C(=O)O)cc2)C(=O)/C1=C\c1cc(C(=O)c2ccccc2Cl)c[nH]1 [Compound 5] ?
Return: 5.3

Enquiry: Can you look up IC50 on KAT3B (Homo sapiens) for CC1=NN(c2ccc(C(=O)O)cc2)C(=O)/C1=C\c1cccn1C [Compound 28] ?
Return: 20.8

Enquiry: Can you look up IC50 on KAT3B (Homo sapiens) for CC1=NN(c2ccc(C(=O)O)cc2)C(=O)/C1=C\c1c[nH]c2ccccc12 [Compound 27] ?
Return: 4.6

Enquiry: Can you look up IC50 on KAT3B (Homo sapiens) for CC1=NN(c2ccc(C(=O)O)cc2)C(=O)/C1=C\c1cc(C(=O)c2ccccc2C)c[nH]1 [Compound 13] ?
Return: 8.9

Enquiry: Can you look up IC50 on KAT3B (Homo sapiens) for CCCCCCCc1ccc(CCc2cccc(O)c2C(=O)O)cc1 [III (MG149), reference compound] ?
Return: 22.3

Enquiry: Can you look up IC50 on KAT3B (Homo sapiens) for CC1=NN(c2ccc(C(=O)O)cc2)C(=O)/C1=C\c1cc(C(=O)c2ccccc2[N+](=O)[O-])c[nH]1 [Compound 2] ?
Return: 9.1

Enquiry: Can you look up IC50 on KAT3B (Homo sapiens) for CC1=NN(c2ccc(C(=O)O)cc2)C(=O)/C1=C\c1cccn1-c1ccccc1 [Compound 29] ?
Return: 14.6

Enquiry: Can you look up IC50 on KAT3B (Homo sapiens) for CC1=NN(c2ccc(C(=O)O)cc2)C(=O)/C1=C\c1c[nH]cn1 [Compound 25] ?
Return: 29.2

###

- Target Under Test: KAT8 (Homo sapiens, UniProt Q9H7Z6)
- Construct: using the previously purified KAT8 (173–458, 5 nM); 6xHis tag with TEV protease cleavage site (N, cleaved yes); made in house; host or cells: E. coli BL21(DE3)
- Sequence (Q9H7Z6 173-458): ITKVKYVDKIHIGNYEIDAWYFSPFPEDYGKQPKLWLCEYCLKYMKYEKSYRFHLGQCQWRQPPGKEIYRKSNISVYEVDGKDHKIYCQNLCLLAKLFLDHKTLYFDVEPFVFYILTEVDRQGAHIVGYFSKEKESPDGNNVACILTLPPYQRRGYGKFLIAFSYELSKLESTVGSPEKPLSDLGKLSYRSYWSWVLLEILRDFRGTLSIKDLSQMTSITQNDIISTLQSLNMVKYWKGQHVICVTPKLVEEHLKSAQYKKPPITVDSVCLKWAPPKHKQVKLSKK
- Test Name: Radioactive KAT8 inhibition assay
- Assay type: biochemical
- Condition Notes: read-out: IC50 KAT8 (5 nM); enzyme 5 nM; 2-fold serial dilution from 200 μM; NI = no inhibition at 200 μM; mean ± SD of three independent experiments
Please note: IC50 exactly at 30 µM is no (0). Only values below 30 µM get yes (1).

Enquiry: Please state whether IC50 is below 30 µM for "CC1=NN(c2ccc(C(=O)O)cc2)C(=O)/C1=C\c1c[nH]c2ccccc12"
Return: no (0)

Enquiry: Please state whether IC50 is below 30 µM for "CC1=NN(c2ccc(C(=O)O)cc2)C(=O)/C1=C\c1cccs1"
Return: yes (1)

Enquiry: Please state whether IC50 is below 30 µM for "CC1=NN(c2ccccc2)C(=O)/C1=C\c1cc(C(=O)c2ccccc2)c[nH]1"
Return: no (0)

Enquiry: Please state whether IC50 is below 30 µM for "CC1=NN(c2ccc(C(=O)O)cc2)C(=O)/C1=C\c1cccn1-c1ccccc1"
Return: yes (1)

Enquiry: Please state whether IC50 is below 30 µM for "CC1=NN(c2ccc(C(=O)O)cc2)C(=O)/C1=C\c1cc(C(=O)c2ccccc2[N+](=O)[O-])c[nH]1"
Return: no (0)

Enquiry: Please state whether IC50 is below 30 µM for "CC1=NN(c2ccc(S(N)(=O)=O)cc2)C(=O)/C1=C\c1ccc[nH]1"
Return: no (0)

Enquiry: Please state whether IC50 is below 30 µM for "CC1=NN(c2ccc(C(=O)O)cc2)C(=O)/C1=C\c1cc(C(=O)c2ccc(Cl)cc2)c[nH]1"
Return: no (0)

Enquiry: Please state whether IC50 is below 30 µM for CCCCCCCc1ccc(CCc2cccc(O)c2C(=O)O)cc1 [III (MG149), reference compound]
Return: yes (1)

Enquiry: Please state whether IC50 is below 30 µM for "CC1=NN(c2ccc(C(=O)O)cc2)C(=O)/C1=C\c1c[nH]cn1"
Return: no (0)

Enquiry: Please state whether IC50 is below 30 µM for "CC1=NN(c2ccc(C(=O)O)cc2)C(=O)/C1=C(/C)c1ccc[nH]1"
Return: yes (1)

Enquiry: Please state whether IC50 is below 30 µM for "CC1=NN(c2ccc(C(=O)O)cc2)C(=O)/C1=C\c1cc(C(=O)c2cccc([N+](=O)[O-])c2)c[nH]1"
Return: no (0)

Enquiry: Please state whether IC50 is below 30 µM for "CC1=NN(c2ccc(S(=O)(=O)O)cc2)C(=O)/C1=C\c1ccc[nH]1"
Return: no (0)

Enquiry: Please state whether IC50 is below 30 µM for "CC1=NN(c2ccc(C(=O)O)cc2)C(=O)/C1=C\c1cc(C(=O)c2ccc([N+](=O)[O-])cc2)c[nH]1"
Return: no (0)

Enquiry: Please state whether IC50 is below 30 µM for "CC1=NN(c2cccc(C(=O)O)c2)C(=O)/C1=C\c1ccc[nH]1"
Return: yes (1)

Enquiry: Please state whether IC50 is below 30 µM for CC1=NN(c2ccc(C(=O)O)cc2)C(=O)/C1=C\c1ccc(-c2cc(C)c(C)cc2[N+](=O)[O-])o1 [VII (C646), reference compound]
Return: no (0)

Enquiry: Please state whether IC50 is below 30 µM for "CC1=NN(c2ccc(C(=O)O)cc2)C(=O)/C1=C\c1cc[nH]c1"
Return: no (0)

Enquiry: Please state whether IC50 is below 30 µM for "CC1=NN(c2ccc(C(N)=O)cc2)C(=O)/C1=C\c1ccc[nH]1"
Return: no (0)

Enquiry: Please state whether IC50 is below 30 µM for "CC1=NN(c2ccc(C(=O)NCCO)cc2)C(=O)/C1=C\c1ccc[nH]1"
Return: no (0)

Enquiry: Please state whether IC50 is below 30 µM for "CC1=NN(c2ccc(C(=O)O)cc2)C(=O)/C1=C\c1cc(C(=O)c2cccc(C)c2)c[nH]1"
Return: no (0)

Enquiry: Please state whether IC50 is below 30 µM for "CC1=NN(c2ccc(C(=O)O)cc2)C(=O)/C1=C\c1cc(C(=O)c2ccccc2Cl)c[nH]1"
Return: no (0)

Enquiry: Please state whether IC50 is below 30 µM for "CC1=NN(c2ccc(C(=O)O)cc2)C(=O)/C1=C\c1cc(C(=O)c2ccccc2)c[nH]1"
Return: no (0)

Enquiry: Please state whether IC50 is below 30 µM for "CC1=NN(c2ccc(C(=O)O)cc2)C(=O)/C1=C\c1cc(C(=O)c2cccc(Cl)c2)c[nH]1"
Return: no (0)

Enquiry: Please state whether IC50 is below 30 µM for "CC1=NN(c2ccccc2)C(=O)/C1=C\c1cc(C(=O)c2ccccc2[N+](=O)[O-])c[nH]1"
Return: no (0)

Enquiry: Please state whether IC50 is below 30 µM for "CC1=NN(c2ccc(C(=O)O)cc2)C(=O)/C1=C\c1cc2ccccc2[nH]1"
Return: yes (1)

Enquiry: Please state whether IC50 is below 30 µM for "CC1=NN(c2ccc(C(=O)NCc3ccccc3)cc2)C(=O)/C1=C\c1ccc[nH]1"
Return: no (0)

Enquiry: Please state whether IC50 is below 30 µM for "CC(C)C1=NN(c2ccc(C(=O)O)cc2)C(=O)/C1=C\c1ccc[nH]1"
Return: yes (1)

Enquiry: Please state whether IC50 is below 30 µM for "COc1cccc(C(=O)c2c[nH]c(/C=C3\C(=O)N(c4ccc(C(=O)O)cc4)N=C3C)c2)c1"
Return: no (0)

Enquiry: Please state whether IC50 is below 30 µM for "Cc1nn(-c2ccc(C(=O)O)cc2)c(O)c1Cc1ccccc1"
Return: yes (1)

Enquiry: Please state whether IC50 is below 30 µM for "O=C(O)c1ccc(N2N=C(c3ccccc3)/C(=C/c3ccc[nH]3)C2=O)cc1"
Return: yes (1)

Enquiry: Please state whether IC50 is below 30 µM for "CC1=NN(c2ccc(C(=O)O)cc2)C(=O)C1"
Return: no (0)

Enquiry: Please state whether IC50 is below 30 µM for "CC1=NN(c2ccc(C(=O)O)cc2)C(=O)/C1=C\c1cc(C(=O)c2ccccc2O)c[nH]1"
Return: no (0)
